System: DR1
Test: DR1
From the text: Table printed on a drawing sheet, Fig. 9 First copying reader's note: "IC50" is printed only in the DR11 cell of the second head row but evidently applies to all ten allele columns; the "Sequence" column gives residue ranges, the sheet prints no unit, and only p1 to p28 appear on this sheet.

SUBSTANCE: p26: overlapping 15mer peptide of HLA-A2, SEQ ID NO: 29, sequence in Figure 3 (IALKEDLRSWTAADM)
UNITS_TEXT: nM
IC50: 151
